Target: NK1 (Homo sapiens, UniProt P25103)
Sequence (P25103 whole entry): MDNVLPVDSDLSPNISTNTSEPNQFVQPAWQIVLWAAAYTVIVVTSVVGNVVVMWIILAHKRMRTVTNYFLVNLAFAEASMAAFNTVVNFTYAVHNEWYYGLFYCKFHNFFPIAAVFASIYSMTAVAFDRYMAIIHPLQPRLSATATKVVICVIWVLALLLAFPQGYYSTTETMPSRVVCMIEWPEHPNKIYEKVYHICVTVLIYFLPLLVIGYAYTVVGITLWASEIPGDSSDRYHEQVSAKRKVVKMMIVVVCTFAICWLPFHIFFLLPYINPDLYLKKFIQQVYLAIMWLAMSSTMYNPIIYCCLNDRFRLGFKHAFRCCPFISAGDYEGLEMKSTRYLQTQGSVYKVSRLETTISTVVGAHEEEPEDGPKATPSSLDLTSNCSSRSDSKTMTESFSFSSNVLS
Assay: Signal transduction (ST), intracellular Ca++ (FLIPR), functional NK1 antagonistic activity
Type: cell-based
Details: antagonist, read-out: NK1 pIC50 (converted)
READOUT LABEL: IC50 (nM)

{"MOLECULE": "O=C(c1ccncc1)N1CCC2(CC1)CCN([C@H]1CCN(C(=O)c3cc(C(F)(F)F)cc(C(F)(F)F)c3)[C@H](Cc3ccccc3)C1)CC2", "ASSAY TARGET": "NK1 (Homo sapiens, UniProt P25103)", "RESULT UNIT": "nM", "ENDPOINT RESULT": 29.5}

[a] Cc1nnsc1C(=O)N1CCC2(CC1)CCN(C(=O)[C@H]1CCN(C(=O)c3cc(C(F)(F)F)cc(C(F)(F)F)c3)[C@H](Cc3ccccc3)C1)CC2
[b] O=C(C1CCOC1)N1CCC2(CC1)CCN(C(=O)[C@H]1CCN(C(=O)c3cc(C(F)(F)F)cc(C(F)(F)F)c3)[C@H](Cc3ccccc3)C1)CC2 (stereo partly drawn)
Hello, I am sorting some records. Could you say if a or b has the smaller IC50 value? Your answer should be the label of the entry you select.
a
(a: 6.17 nM, b: 20 nM)

====

Target: UniProtKB P29371
Sequence (P29371 whole entry): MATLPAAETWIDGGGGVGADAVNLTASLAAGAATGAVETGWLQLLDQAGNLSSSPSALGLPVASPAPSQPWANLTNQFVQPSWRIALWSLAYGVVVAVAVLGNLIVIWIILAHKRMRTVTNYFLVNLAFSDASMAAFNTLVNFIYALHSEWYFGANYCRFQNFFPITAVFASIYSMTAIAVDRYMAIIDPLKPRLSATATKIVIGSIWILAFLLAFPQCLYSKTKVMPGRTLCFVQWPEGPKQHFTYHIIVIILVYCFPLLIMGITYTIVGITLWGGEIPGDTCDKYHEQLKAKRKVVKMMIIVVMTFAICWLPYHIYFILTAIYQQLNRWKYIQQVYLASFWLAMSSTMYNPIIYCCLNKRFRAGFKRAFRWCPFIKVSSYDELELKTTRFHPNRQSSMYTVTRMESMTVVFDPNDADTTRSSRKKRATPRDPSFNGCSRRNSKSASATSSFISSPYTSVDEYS
Experiment: Signal transduction (ST), intracellular Ca++ (FLIPR), NK3
Assay type: cell-based
Settings: antagonist, read-out: NK3 pIC50 (converted)
READOUT LABEL: IC50 (µM)

Sample records with IC50:
{"MOLECULE": "O=C(c1cc(C(F)(F)F)cc(C(F)(F)F)c1)N1CC[C@@H](N2CCC3(CCN(C(=O)C45CC6CC(CC(C6)C4)C5)CC3)CC2)C[C@H]1Cc1ccccc1 [Compound 59]", "READOUT LABEL": "IC50", "RESULT UNIT": "µM", "ENDPOINT RESULT": 5.89}
{"MOLECULE": "Cc1ccc(S(=O)(=O)N2CCC3(CCN([C@H]4CCN(C(=O)c5cc(C(F)(F)F)cc(C(F)(F)F)c5)[C@H](Cc5ccccc5)C4)CC3)CC2)cc1 [Compound 105]", "READOUT LABEL": "IC50", "RESULT UNIT": "µM", "ENDPOINT RESULT": 2}
{"MOLECULE": "Cc1ccccc1S(=O)(=O)N1CCC2(CCN([C@H]3CCN(C(=O)c4cc(C(F)(F)F)cc(C(F)(F)F)c4)[C@H](Cc4ccccc4)C3)CC2)CC1 [Compound 103]", "READOUT LABEL": "IC50", "RESULT UNIT": "µM", "ENDPOINT RESULT": 1.51}
{"MOLECULE": "CC(C)(C)C(=O)N1CCCC2(CCCN([C@H]3CCN(C(=O)c4cc(C(F)(F)F)cc(C(F)(F)F)c4)[C@H](Cc4ccccc4)C3)C2)C1 (stereo partly shown) [Compound 207]", "READOUT LABEL": "IC50", "RESULT UNIT": "µM", "ENDPOINT RESULT": 5.75}
{"MOLECULE": "O=C(c1cc(C(F)(F)F)cc(C(F)(F)F)c1)N1CC[C@H](N2CCC3(CC2)CCN(S(=O)(=O)c2ccccc2)CC3)C[C@H]1Cc1ccccc1 [Compound 102]", "READOUT LABEL": "IC50", "RESULT UNIT": "µM", "ENDPOINT RESULT": 0.708}
{"MOLECULE": "CC(C)S(=O)(=O)N1CCC2(CCN([C@H]3CCN(C(=O)c4cc(C(F)(F)F)cc(C(F)(F)F)c4)[C@H](Cc4ccccc4)C3)CC2)CC1 [Compound 167]", "READOUT LABEL": "IC50", "RESULT UNIT": "µM", "ENDPOINT RESULT": 1.95}

[I] CC(C)(C)OC(=O)N1CCCC1C(=O)N1CCC2(CC1)CCN(C(=O)[C@H]1CCN(C(=O)c3cc(C(F)(F)F)cc(C(F)(F)F)c3)[C@H](Cc3ccccc3)C1)CC2 (stereo partly shown) [Compound 188]
[II] CC1(C)C(C(=O)N2CCC3(CC2)CCN([C@H]2CCN(C(=O)c4cc(C(F)(F)F)cc(C(F)(F)F)c4)[C@H](Cc4ccccc4)C2)CC3)C1(C)C [Compound 16]
[III] O=C1CC2(CCN1Cc1ccoc1)CCN([C@H]1CCN(C(=O)c3cc(C(F)(F)F)cc(C(F)(F)F)c3)[C@H](Cc3ccccc3)C1)CC2 [Compound 199]
[IV] O=C(c1cc(C(F)(F)F)cc(C(F)(F)F)c1)N1CCC(N2CCC3(CC2)CCN(S(=O)(=O)c2cccs2)CC3)CC1Cc1ccccc1 (stereo not shown) [Compound 92]
Parameters: sort_field (IC50), sort_dir (desc). Give the labels in the order specified.
II, I, III, IV
(II: 8.51 µM, I: 3.72 µM, III: 0.851 µM, IV: 0.339 µM)

====

Target: NK1 (Homo sapiens, UniProt P25103)
Assay: Signal transduction (ST), intracellular Ca++ (FLIPR), functional NK1 antagonistic activity
Format: cell-based
Settings: antagonist, read-out: NK1 pIC50 (converted)
READOUT LABEL: IC50 (nM)

{"COMPOUND": "O=C(c1cc(C(F)(F)F)cc(C(F)(F)F)c1)N1CC[C@H](N2CCC3(CC2)CCN(S(=O)(=O)c2cc(Cl)sc2Cl)CC3)C[C@H]1Cc1ccccc1 [Compound 97]", "ENDPOINT RESULT": 87.1}
{"COMPOUND": "Cc1noc(C)c1C(=O)N1CCC2(CC1)CCN([C@H]1CCN(C(=O)c3cc(C(F)(F)F)cc(C(F)(F)F)c3)[C@H](Cc3ccccc3)C1)CC2 [Compound 35]", "ENDPOINT RESULT": 19.1}

[a] O=C(c1ccccn1)N1CCC2(CC1)CCN([C@H]1CCN(C(=O)c3cc(C(F)(F)F)cc(C(F)(F)F)c3)[C@H](Cc3ccccc3)C1)CC2 [Compound 49]
[b] O=C(C1CC1)N1CCC2(CC1)CCN([C@H]1CCN(C(=O)c3cc(C(F)(F)F)cc(C(F)(F)F)c3)[C@H](Cc3ccc(Cl)c(Cl)c3)C1)CC2 [Compound 131]
[c] O=C1CCC(C(=O)N2CCC3(CC2)CCN([C@H]2CCN(C(=O)c4cc(C(F)(F)F)cc(C(F)(F)F)c4)[C@H](Cc4ccc(F)c(F)c4)C2)CC3)N1 (stereo partly drawn) [Compound 139]
[d] O=C(c1cc(C(F)(F)F)cc(C(F)(F)F)c1)N1CC[C@H](N2CCC3(CC2)CCN(S(=O)(=O)c2ccc(Cl)cc2)CC3)C[C@H]1Cc1ccccc1 [Compound 108]
Parameters: sort_field (IC50), sort_dir (desc). Give the labels in the order specified.
d, a, c, b

====

Molecular target: NK2 (Homo sapiens)
Sequence (P21452 whole entry): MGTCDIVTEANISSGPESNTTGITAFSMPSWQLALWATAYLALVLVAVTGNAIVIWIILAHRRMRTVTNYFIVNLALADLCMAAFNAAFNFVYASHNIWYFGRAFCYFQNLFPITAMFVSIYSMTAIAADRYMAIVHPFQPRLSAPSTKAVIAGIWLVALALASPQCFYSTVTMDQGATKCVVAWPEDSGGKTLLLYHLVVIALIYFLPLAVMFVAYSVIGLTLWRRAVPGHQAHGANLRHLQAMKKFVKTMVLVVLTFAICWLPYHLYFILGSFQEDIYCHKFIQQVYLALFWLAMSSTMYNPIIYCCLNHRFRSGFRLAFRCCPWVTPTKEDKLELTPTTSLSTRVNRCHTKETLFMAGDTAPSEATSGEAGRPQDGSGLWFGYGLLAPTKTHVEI
Test: Signal transduction (ST), intracellular Ca++ (FLIPR), NK2
Assay type: cell-based
Details: antagonist, read-out: NK2 pIC50 (converted)
READOUT LABEL: IC50 (nM)

{"MOLECULE": "Cc1noc(C)c1S(=O)(=O)N1CCC2(CCN([C@H]3CCN(C(=O)c4cc(C(F)(F)F)cc(C(F)(F)F)c4)[C@H](Cc4ccccc4)C3)CC2)CC1 [Compound 101]", "ASSAY TARGET": "NK2 (Homo sapiens)", "READOUT LABEL": "IC50", "ENDPOINT RESULT": 2000}

[a] O=C(CC1CCCCC1)N1CCC2(CC1)CCN([C@H]1CCN(C(=O)c3cc(C(F)(F)F)cc(C(F)(F)F)c3)[C@H](Cc3ccccc3)C1)CC2 [Compound 71]
[b] CC(C)(C)C(=O)N1CCCC2(CCCN([C@H]3CCN(C(=O)c4cc(C(F)(F)F)cc(C(F)(F)F)c4)[C@H](Cc4ccccc4)C3)C2)C1 (stereo partly drawn) [Compound 207]
[c] O=C(c1cc(C(F)(F)F)cc(C(F)(F)F)c1)N1CC[C@H](N2CCC3(CC2)CCN(S(=O)(=O)c2cc(Cl)c(Cl)s2)CC3)C[C@H]1Cc1ccccc1 [Compound 96]
Parameters: sort_field (IC50), sort_dir (desc). Give the labels in the order specified.
a, b, c

====

Target: NK1 (Homo sapiens)
Experiment: Signal transduction (ST), intracellular Ca++ (FLIPR), functional NK1 antagonistic activity
Format: cell-based
Conditions: antagonist, read-out: NK1 pIC50 (converted)
READOUT LABEL: IC50 (nM)

[a] CC(C)(C)CC(=O)N1CCC2(CC1)CCN([C@H]1CCN(C(=O)c3cc(C(F)(F)F)cc(C(F)(F)F)c3)[C@H](Cc3ccccc3)C1)CC2
[b] O=C(c1cc(C(F)(F)F)cc(C(F)(F)F)c1)N1CC[C@H](N2CCC3(CCN(C(=O)C45CC6CC(CC(C6)C4)C5)CC3)CC2)C[C@H]1Cc1ccccc1
[c] O=C(C1CC1)N1CCCC2(CCN([C@H]3CCN(C(=O)c4cc(C(F)(F)F)cc(C(F)(F)F)c4)[C@H](Cc4ccccc4)C3)CC2)C1
With the 3 compounds above, produce a list ordered by ascending IC50. Give the labels in the order specified.
a, c, b
(a: 64.6 nM, c: 93.3 nM, b: 240 nM)
